- TARGET_SYSTEM: human serum albumin (human) (UniProt P02768)
- Sequence (P02768 25-609 limits assumed): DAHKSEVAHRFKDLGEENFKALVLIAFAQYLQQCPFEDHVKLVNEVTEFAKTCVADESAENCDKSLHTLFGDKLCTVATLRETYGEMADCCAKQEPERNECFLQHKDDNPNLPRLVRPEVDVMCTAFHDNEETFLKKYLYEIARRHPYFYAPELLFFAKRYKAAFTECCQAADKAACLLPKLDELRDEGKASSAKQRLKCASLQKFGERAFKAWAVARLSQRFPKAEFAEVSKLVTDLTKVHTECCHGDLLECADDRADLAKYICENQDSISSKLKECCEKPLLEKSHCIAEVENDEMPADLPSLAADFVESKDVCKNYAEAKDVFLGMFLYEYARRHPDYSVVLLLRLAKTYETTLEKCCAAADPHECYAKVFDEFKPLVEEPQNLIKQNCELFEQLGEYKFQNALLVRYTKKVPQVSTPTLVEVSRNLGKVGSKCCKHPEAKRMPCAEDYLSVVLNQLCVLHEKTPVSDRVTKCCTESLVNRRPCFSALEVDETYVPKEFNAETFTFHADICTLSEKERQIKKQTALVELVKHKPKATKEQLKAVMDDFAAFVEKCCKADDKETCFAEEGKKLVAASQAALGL
- PROCEDURE_SUMMARY: screening ELISA
MEASURE_NAME: HSA

Solved cases below.
BINDER	RESULT
SEQ ID NO 211 (designed binder) MLPAPKNLVVSRVTEDSARLSWTAPDAAFDSFWINYYEAQPDGEAIVLTVPGSERSYDLTGLKPGTEYDVEIAGVKGGTASLPLSAIFTT	3000
SEQ ID NO 170 (designed binder) MLPAPKNLVVSRVTEDSARLSWTAPDAAFDSFFIGYPEYPATGEAIVLTVPGSERSYDLTGLKPGTEYFVDINGVKGGSLSYPLSAIFTT	16800

Continue with the next binder.
# HSA (binder: SEQ ID NO 206 (designed binder) MLPAPKNLVVSRVTEDSARLSWTAPDAAFDSFDIEYDELWKNGEAIVLTVPGSERSYDLTGLKPGTEYRVFIYGVKGGYGSFPLSAIFTT ) is 2650
